The values you see were collected from patent US20170081400A1.

Overview of recorded TL1A Binding Level (Early) for various binders
# SYSTEM UNDER TEST: T1, human TL1A extracellular domain with N-terminal HIS and FLAG tag (human, UniProt O95150 72-251)
# T1 construct: the whole entry is named; also called TNFSF15
# T1 sequence: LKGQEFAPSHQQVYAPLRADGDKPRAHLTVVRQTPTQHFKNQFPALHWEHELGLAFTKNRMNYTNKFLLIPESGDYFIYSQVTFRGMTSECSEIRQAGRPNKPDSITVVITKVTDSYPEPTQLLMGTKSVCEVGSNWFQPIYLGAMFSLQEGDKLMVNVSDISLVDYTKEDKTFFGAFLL
# PROTOCOL TEXT: SPR Run 7, antibody on Protein A, TL1A 5 ug/mL, timepoint 44
# Procedure: 1.5. Antibody expression and antigen binding as determined by SPR. Using a CM5 sensor chip (GE Healthcare) Protein A (Pierce) was coupled to the chip surface using an amine coupling kit (GE Healthcare). Protein A was coupled on flow cell 1 and 2 (or alternatively 3 and 4) using a BIACORE® T200. […] At the end of injection of the supernatant or purified antibody the change in response units was measured. […] The response units were measured prior to the end of the dissociation phase. […]
Field: numeric (RU). Do not append units.

Recorded TL1A Binding Level (Early), per entry:
Qu. Would you kindly share the measured TL1A Binding Level (Early) for 320-530 (antibody, human IgG1, name in Kabat numbering, V domains shown, full-length human IgG1, lambda) VH: QVQLVQSGAEVKKPGASVKVSCKASGYTFTSYDINWVRQAPGQGLEWMGWLNPNYGNTGYAQKFQGRVTMTADRSTSTAYMELSSLRSEDTAVYYCAREVPETAAFEYWGQGTLVTVSS VL: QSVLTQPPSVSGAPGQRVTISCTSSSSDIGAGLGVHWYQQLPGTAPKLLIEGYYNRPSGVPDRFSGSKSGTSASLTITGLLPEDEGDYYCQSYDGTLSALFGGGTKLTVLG ?
Ans. 77

Qu. Follow-up entry: 320-504 (antibody, human IgG1, name in Kabat numbering, V domains shown, full-length human IgG1, lambda) VH: QVQLVQSGAEVKKPGASVKVSCKASGYTFTSYDINWVRQAPGQGLEWMGWLYPNSGNTGYAQKFQGRVTMTADRSTSTAYMELSSLRSEDTAVYYCAREVPETAAFEYWGQGTLVTVSS VL: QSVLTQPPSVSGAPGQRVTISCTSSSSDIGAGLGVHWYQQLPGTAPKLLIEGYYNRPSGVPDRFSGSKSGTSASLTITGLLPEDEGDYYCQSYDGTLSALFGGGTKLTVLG
Ans. 88

// below: TL1A Binding Level (Early) requested for another binder
Qu. Which TL1A Binding Level (Early) value is on record for 320-523 (antibody, human IgG1, name in Kabat numbering, V domains shown, full-length human IgG1, lambda) VH: QVQLVQSGAEVKKPGASVKVSCKASGYTFTSYDINWVRQAPGQGLEWMGWLNPNAGNTGYAQKFQGRVTMTADRSTSTAYMELSSLRSEDTAVYYCAREVPETAAFEYWGQGTLVTVSS VL: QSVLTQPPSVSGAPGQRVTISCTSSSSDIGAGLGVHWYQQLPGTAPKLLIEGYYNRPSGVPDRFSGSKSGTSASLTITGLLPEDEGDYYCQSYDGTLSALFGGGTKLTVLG ?
Ans. 88
